assay comment: Methylglyoxal reductase activity assay, kinetics of purified YqhD enzymes toward methylglyoxal
Type: biochemical, E. coli
Method: Methylglyoxal reductase activity was assayed by measuring the initial rate of NADPH oxidation with a spectrophotometer at a wavelength of 340 nm and at a constant temperature of 37° C. […] Control assay (blank), lacking the substrate was run in parallel and the value measured for the control was subtracted to the value measured for the assay to take into account non-specific oxidation of NADPH. […]
Recorded Specific activity for the following molecules

{"columns": ["molecule", "Specific activity [µmol/min/mg]"],
 "data": [
  ["E. coli YqhD variant YqhD*(G149S) (Escherichia coli K-12; G149S) (protein) MNNFNLHTPTRILFGKGAIAGLREQIPHDARVLITYGGGSVKKTGVLDQVLDALKGMDVLEFGGIEPNPAYETLMNAVKLVREQKVTFLLAVGGGSVLDGTKFIAAAANYPENIDPWHILQTGGKEIKSAIPMGCVLTLPATGSESNASAVISRKTTGDKQAFHSAHVQPVFAVLDPVYTYTLPPRQVANGVVDAFVHTVEQYVTKPVDAKIQDRFAEGILLTLIEDGPKALKEPENYDVRANVMWAATQALNGLIGAGVPQDWATHMLGHELTAMHGLDHAQTLAIVLPALWNEKRDTKRAKLLQYAERVWNITEGSDDERIDAAIAATRNFFEQLGVPTHLSDYGLDGSSIPALLKKLEEHGMTQLGENHDITLDVSRRIYEAAR", 3.80],
  ["Escherichia coli MG1655 YqhD, native (wild type), SEQ ID NO: 56 (Escherichia coli K-12) (protein) MNNFNLHTPTRILFGKGAIAGLREQIPHDARVLITYGGGSVKKTGVLDQVLDALKGMDVLEFGGIEPNPAYETLMNAVKLVREQKVTFLLAVGGGSVLDGTKFIAAAANYPENIDPWHILQTGGKEIKSAIPMGCVLTLPATGSESNAGAVISRKTTGDKQAFHSAHVQPVFAVLDPVYTYTLPPRQVANGVVDAFVHTVEQYVTKPVDAKIQDRFAEGILLTLIEDGPKALKEPENYDVRANVMWAATQALNGLIGAGVPQDWATHMLGHELTAMHGLDHAQTLAIVLPALWNEKRDTKRAKLLQYAERVWNITEGSDDERIDAAIAATRNFFEQLGVPTHLSDYGLDGSSIPALLKKLEEHGMTQLGENHDITLDVSRRIYEAAR", 3.91],
  ["E. coli YqhD variant YqhD*(G149E) (Escherichia coli K-12; G149E) (protein) MNNFNLHTPTRILFGKGAIAGLREQIPHDARVLITYGGGSVKKTGVLDQVLDALKGMDVLEFGGIEPNPAYETLMNAVKLVREQKVTFLLAVGGGSVLDGTKFIAAAANYPENIDPWHILQTGGKEIKSAIPMGCVLTLPATGSESNAEAVISRKTTGDKQAFHSAHVQPVFAVLDPVYTYTLPPRQVANGVVDAFVHTVEQYVTKPVDAKIQDRFAEGILLTLIEDGPKALKEPENYDVRANVMWAATQALNGLIGAGVPQDWATHMLGHELTAMHGLDHAQTLAIVLPALWNEKRDTKRAKLLQYAERVWNITEGSDDERIDAAIAATRNFFEQLGVPTHLSDYGLDGSSIPALLKKLEEHGMTQLGENHDITLDVSRRIYEAAR", 7.65],
  ["E. coli YqhD variant YqhD*(G149S A286T) (Escherichia coli K-12; A286T/G149S) (protein) MNNFNLHTPTRILFGKGAIAGLREQIPHDARVLITYGGGSVKKTGVLDQVLDALKGMDVLEFGGIEPNPAYETLMNAVKLVREQKVTFLLAVGGGSVLDGTKFIAAAANYPENIDPWHILQTGGKEIKSAIPMGCVLTLPATGSESNASAVISRKTTGDKQAFHSAHVQPVFAVLDPVYTYTLPPRQVANGVVDAFVHTVEQYVTKPVDAKIQDRFAEGILLTLIEDGPKALKEPENYDVRANVMWAATQALNGLIGAGVPQDWATHMLGHELTAMHGLDHAQTLTIVLPALWNEKRDTKRAKLLQYAERVWNITEGSDDERIDAAIAATRNFFEQLGVPTHLSDYGLDGSSIPALLKKLEEHGMTQLGENHDITLDVSRRIYEAAR", 2.69]
]}
